molecular target: hSSTR-4 (Homo sapiens, UniProt P31391); construct: expressed in transfected cells; host or cells: CHO-K1; assay: Somatostatin receptor radioligand binding, hSSTR-4 (CHO-K1 membranes); conditions: read-out: Ki hSSTR4 ± (SEM)
Sequence (P31391 whole entry): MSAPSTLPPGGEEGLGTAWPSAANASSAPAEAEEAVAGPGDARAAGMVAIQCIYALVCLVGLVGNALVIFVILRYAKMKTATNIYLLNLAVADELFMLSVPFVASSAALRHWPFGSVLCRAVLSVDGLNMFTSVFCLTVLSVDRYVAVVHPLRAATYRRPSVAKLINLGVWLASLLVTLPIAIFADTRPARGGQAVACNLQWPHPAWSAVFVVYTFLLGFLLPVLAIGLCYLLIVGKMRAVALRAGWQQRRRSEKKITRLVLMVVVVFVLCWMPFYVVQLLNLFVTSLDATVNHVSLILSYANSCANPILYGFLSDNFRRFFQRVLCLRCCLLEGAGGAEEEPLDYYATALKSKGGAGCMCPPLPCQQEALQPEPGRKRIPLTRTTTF
pKi: −log10 of the molar value.
measured parameter: pKi

pKi for CC[C@@H]1NC(=O)[C@H](CCCCN)NC(=O)[C@@H](Cc2c[nH]c3ccccc23)NC(=O)[C@H](Cc2ccc(O)cc2)NC(=O)[C@@H](NC(=O)[C@@H](Cc2ccccc2)NC(=O)CN2CCN(CCNC(=O)COCCOCCNC(=O)COCCOCCNC(=O)COCCOCCNC(=O)COCCOCCNC(=O)CCC(=O)N[C@@H](Cc3ccccc3)C(=O)O[C@]3(CC)C(=O)OCc4c3cc3n(c4=O)Cc4cc5ccccc5nc4-3)CC2)CSSC[C@@H](C(=O)N[C@H](C(N)=O)[C@@H](C)O)NC1=O ?
≤ 6.00
